- assayed-target: Melanocortin receptor 4 (Mus musculus)
- Sequence (P56450 whole entry): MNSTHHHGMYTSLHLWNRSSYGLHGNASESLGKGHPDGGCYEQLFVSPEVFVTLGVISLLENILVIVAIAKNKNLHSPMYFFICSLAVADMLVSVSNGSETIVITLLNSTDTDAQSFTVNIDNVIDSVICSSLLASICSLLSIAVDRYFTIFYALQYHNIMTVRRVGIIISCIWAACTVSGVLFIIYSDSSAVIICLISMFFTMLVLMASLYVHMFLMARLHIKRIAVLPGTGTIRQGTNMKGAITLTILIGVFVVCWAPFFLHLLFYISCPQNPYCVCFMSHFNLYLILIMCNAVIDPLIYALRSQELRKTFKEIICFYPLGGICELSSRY
- run-description: Inhibitory concentration towards melanocortin MC4 receptor by displacing radioligand [125I]-hAGRP(87-132)
Where a SMILES comes first, the peptide text is derived from it. Bridges are numbered along the chain shown (N, C = ends). [ ]: non-standard residue; d: D form. Dap = NC[C@H](N)C(=O)O
# Lookup of reported IC50 keyed by entry
Please give a number only; it is taken to be in µM.

// known answers, use as guide
compound: C[C@@H]1NC(=O)[C@H](CC(N)=O)NC(=O)[C@H](Cc2c[nH]c3ccccc23)NC(=O)[C@H](CCCNC(=N)N)NC(=O)[C@@H](Cc2ccccc2)NC(=O)[C@@H](NC(=O)[C@@H](N)Cc2ccc(O)cc2)CC(=O)NC[C@@H](C(=O)N[C@@H](Cc2ccc(O)cc2)C(N)=O)NC(=O)[C@H](Cc2ccccc2)NC1=O (H-YD[dF]RWNAF[Dap]Y-NH2; lactam 2-9)
result-unit: µM
IC50: 3.1

compound: C[C@@H]1NC(=O)[C@H](CC(N)=O)NC(=O)[C@H](Cc2c[nH]c3ccccc23)NC(=O)[C@H](CCCNC(=N)N)NC(=O)[C@H](Cc2ccccc2)NC(=O)[C@@H](NC(=O)[C@@H](N)Cc2ccc(O)cc2)CC(=O)NC[C@@H](C(=O)N[C@@H](Cc2ccc(O)cc2)C(N)=O)NC(=O)[C@H](Cc2ccccc2)NC1=O (H-YDFRWNAF[Dap]Y-NH2; lactam 2-9)
result-unit: µM
IC50: 4.1

compound: C[C@@H]1NC(=O)[C@H](CC(N)=O)NC(=O)[C@H](Cc2ccccc2)NC(=O)[C@H](Cc2ccccc2)NC(=O)[C@H](CCCNC(=N)N)NC(=O)[C@@H](NC(=O)[C@@H](N)Cc2ccc(O)cc2)CC(=O)NC[C@@H](C(=O)N[C@@H](Cc2ccc(O)cc2)C(N)=O)NC(=O)[C@H](Cc2ccccc2)NC1=O
result-unit: µM
IC50: 3.2

Now examine the next entry.
Problem: Any idea what its IC50 is? The compound is C[C@@H]1NC(=O)[C@H](CC(N)=O)NC(=O)[C@H](Cc2ccccc2)NC(=O)[C@H](CCCNC(=N)N)NC(=O)[C@H](Cc2c[nH]c3ccccc23)NC(=O)[C@@H](NC(=O)[C@@H](N)Cc2ccc(O)cc2)CC(=O)NC[C@@H](C(=O)N[C@@H](Cc2ccc(O)cc2)C(N)=O)NC(=O)[C@H](Cc2ccccc2)NC1=O (H-YDWRFNAF[Dap]Y-NH2; lactam 2-9)
Result: 7.3
